PROCEDURE_SUMMARY: CCTE_Deisenroth_5AR_NBTE_acceptor: CCTE's 5alpha-reductase NanoBRET Target Engagement Assay - Autofluorescence Screen, Deisenroth Lab (AID 2284321);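 also: compound fluorescence in the acceptor channel under 460 nm excitation flags autofluorescence artifacts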
RECORDED_CONDITIONS: actives raise or lower the signal
Description: CCTE_Deisenroth_5AR NBTE (5alpha-reductase NanoBRET Target Engagement Assay) is a cell-based, single-readout assay that uses HEK293T, a human kidney cell line, with measurements taken at 5 hours after chemical dosing in a 384 well plate. This assay includes a primary and secondary screen as well as an autofluorscence screen.CCTE_Deisenroth_5AR NBTE_acceptor is one of four assay components measured from the CCTE_Deisenroth_5AR NBTE assay. […]
Calls of active or inactive are those of the source. The calls were made as follows: active = hit-call score of the fitted dose curve at least 0.9, where 1 is the maximum; inactive = score below 0.9.
MEASUREMENT_TYPE: AC50

>>> result("COC(=O)c1c(C)cc(O)c(C)c1O")
"inactive"
>>> result("C1CN(SSN2CCOCC2)CCO1")
"inactive"
>>> result("Oc1ccc(Cl)cc1Cc1cc(Cl)ccc1O")
"inactive"
>>> result("CCCCCCCC/C=C\\CCCCCCCC(=O)O")
"inactive"
>>> result("CCCCCCCC[N+](C)(CCCCCCCC)CCCCCCCC")
"8.7 µM (active)"
>>> result("Cc1ccc(C(C)c2ccc(C)c(C)c2)cc1C")
"inactive"

Data provenance: PubChem BioAssay (EPA / NIEHS)
